System: S. aureus JE2 transposon mutant SAUSA300_1465
PROCEDURE TEXT: MIC ratio WT/mutant
Type: cell-based, Staphylococcus aureus
PROPERTY NAME: Fold decrease of MIC (MIC ratio WT / mutant) (fold)

- SMILES DATA: "CC(=O)NC[C@H]1CN(c2ccc(N3CCOCC3)c(F)c2)C(=O)O1"
  UNIT NAME: "fold"
  OBSERVED VALUE: 6
- SMILES DATA: "CN[C@H](CC(C)C)C(=O)N[C@H]1C(=O)N[C@@H](CC(N)=O)C(=O)N[C@H]2C(=O)N[C@H]3C(=O)N[C@H](C(=O)N[C@H](C(=O)O)c4cc(O)cc(O)c4-c4cc3ccc4O)[C@H](O)c3ccc(c(Cl)c3)Oc3cc2cc(c3O[C@@H]2O[C@H](CO)[C@@H](O)[C@H](O)[C@H]2O[C@H]2C[C@](C)(N)[C@H](O)[C@H](C)O2)Oc2ccc(cc2Cl)[C@H]1O"
  UNIT NAME: "fold"
  OBSERVED VALUE: 4
- SMILES DATA: "NC[C@H]1O[C@H](O[C@H]2[C@H](O)[C@@H](O[C@H]3O[C@H](CO)[C@@H](O)[C@H](N)[C@H]3O)[C@H](N)C[C@@H]2N)[C@H](N)C[C@@H]1O"
  UNIT NAME: "fold"
  OBSERVED VALUE: 4
- SMILES DATA: "CN(C)c1cc(NC(=O)CNC(C)(C)C)c(O)c2c1C[C@H]1C[C@H]3[C@H](N(C)C)C(O)=C(C(N)=O)C(=O)[C@@]3(O)C(O)=C1C2=O"
  UNIT NAME: "fold"
  OBSERVED VALUE: 6
